Where a SMILES comes first, the peptide text is derived from it. [ ]: non-standard residue; d: D form. The star is where a group is joined. Hyp = O=C(O)[C@@H]1C[C@@H](O)CN1; Tle = CC(C)(C)[C@H](N)C(=O)O; 3Abz = Nc1cccc(C(=O)O)c1; Cbz = O=C(OCc1ccccc1)*; CH2F = FC*
For reference, log10 of Ki measured on MALT1 (Homo sapiens (Human)):
// do not treat as linear: log10 of Ki, unit nM

Here are 5 molecules together with their reported answers.
* CC(=O)Nc1cccc(C(=O)N[C@H](C(=O)N2CCC[C@H]2C(=O)N[C@@H](CCCNC(=N)N)C(=O)CF)C(C)C)c1 [Compound 133] (Ac-[3Abz]VPR-CH2F) | 1.73
* CC(C)[C@H](NC(=O)c1ccc(Br)cc1)C(=O)N[C@@H](CO)C(=O)N[C@@H](CCCNC(=N)N)C(=O)CF | 1.81
* N=C(N)NCCC[C@H](NC(=O)[C@@H]1CCCN1C(=O)[C@H](Cc1ccc(C(F)(F)F)cc1)NC(=O)c1ccc(Br)cc1)C(=O)CF | 2.65
* CC(C)[C@H](NC(=O)OCc1ccccc1)C(=O)N1C[C@H](O)C[C@H]1C(=O)N[C@@H](CCCNC(=N)N)C(=O)CF [Compound 109] (Cbz-Val-[Hyp]-Arg-CH2F) | 1.72
* N=C(N)NCCC[C@H](NC(=O)[C@@H]1CCCN1C(=O)[C@H](Cc1ccccc1)NC(=O)OCc1ccccc1)C(=O)CF | 1.88

stdin: Name the reported log10 of Ki value associated with the molecule CC(C)[C@H](NC(=O)OCc1cccc(Cl)c1)C(=O)N1CCC[C@H]1C(=O)N[C@@H](CCCNC(=N)N)C(=O)CF
stdout: 1.34

stdin: What would you report for CC(C)[C@H](NC(=O)C1CCCCC1)C(=O)N1CCC[C@H]1C(=O)N[C@@H](CCCNC(=N)N)C(=O)CF ?
stdout: 1.75

stdin: Entry to check: CC(C)[C@H](NC(=O)c1ccc(N2CCOCC2)cc1)C(=O)N1CCC[C@H]1C(=O)N[C@@H](CCCNC(=N)N)C(=O)CF
stdout: 1.88

stdin: // same read-out, input: N=C(N)NCCC[C@H](NC(=O)[C@@H]1CCCN1C(=O)[C@@H](NC(=O)c1ccc(Br)cc1)C1CCCCC1)C(=O)CF
stdout: 1.65

stdin: Can you check CC(C)[C@H](NC(=O)c1cccc(N2CCOCC2)c1)C(=O)N1CCC[C@H]1C(=O)N[C@@H](CCCNC(=N)N)C(=O)CF next?
stdout: 1.76

stdin: What about CC(C)(C)[C@H](NC(=O)OCc1ccccc1)C(=O)N1CCC[C@H]1C(=O)N[C@@H](CCCNC(=N)N)C(=O)CF [Compound 103] (Cbz-[Tle]-Pro-Arg-CH2F) ?
stdout: 1.63

stdin: Same question, CC(C)[C@H](NC(=O)c1ccc(-c2ccccc2)cc1)C(=O)N1CCC[C@H]1C(=O)N[C@@H](CCCNC(=N)N)C(=O)CF this time
stdout: 1.48

* * *

Target: MALT1 (Homo sapiens (Human), UniProt Q9UDY8)
Sequence (Q9UDY8 whole entry): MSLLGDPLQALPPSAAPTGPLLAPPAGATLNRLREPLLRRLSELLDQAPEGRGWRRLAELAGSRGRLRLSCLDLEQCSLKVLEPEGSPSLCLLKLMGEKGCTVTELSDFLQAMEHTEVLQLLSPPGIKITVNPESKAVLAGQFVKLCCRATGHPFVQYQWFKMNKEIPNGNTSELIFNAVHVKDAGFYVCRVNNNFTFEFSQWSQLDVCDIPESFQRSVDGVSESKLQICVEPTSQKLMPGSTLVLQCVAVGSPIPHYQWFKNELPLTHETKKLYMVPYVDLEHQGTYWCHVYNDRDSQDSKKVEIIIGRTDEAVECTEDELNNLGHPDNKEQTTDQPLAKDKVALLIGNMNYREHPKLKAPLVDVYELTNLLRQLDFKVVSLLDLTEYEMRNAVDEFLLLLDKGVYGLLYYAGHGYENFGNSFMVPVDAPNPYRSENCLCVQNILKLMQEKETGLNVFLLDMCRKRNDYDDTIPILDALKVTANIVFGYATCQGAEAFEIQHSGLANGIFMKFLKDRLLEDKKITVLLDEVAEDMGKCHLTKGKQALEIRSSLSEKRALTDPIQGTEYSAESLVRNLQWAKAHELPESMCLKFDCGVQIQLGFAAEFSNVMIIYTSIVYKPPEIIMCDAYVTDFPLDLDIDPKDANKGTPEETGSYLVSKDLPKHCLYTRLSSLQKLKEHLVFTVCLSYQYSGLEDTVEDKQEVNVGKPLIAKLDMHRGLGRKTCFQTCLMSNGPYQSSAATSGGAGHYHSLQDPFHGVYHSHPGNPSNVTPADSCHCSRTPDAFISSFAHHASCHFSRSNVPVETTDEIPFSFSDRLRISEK
Experiment: Inhibition constants (Ki) for inhibition of MALT1
Format: biochemical
Settings: 100 nM MALT1 used for the assay
Where a SMILES comes first, the peptide text is derived from it. [ ]: non-standard residue; d: D form. The star is where a group is joined. Chg = N[C@H](C(=O)O)C1CCCCC1; NMeV = CN[C@H](C(=O)O)C(C)C; Pip = O=C(O)[C@@H]1CCCCN1; ClZ = O=C(OCc1ccccc1Cl)*; Ac5c = NC1(C(=O)O)CCCC1; Cbz = O=C(OCc1ccccc1)*; PhAc = O=C(Cc1ccccc1)*; CH2F = FC*
Field: class. Source value: Ki. Ranges: class A: < 30 nM; class B: ≥ 30 nM and < 40 nM; class C: ≥ 40 nM

Worked set:
* CC(C)[C@@H](C(=O)N1CCC[C@H]1C(=O)N[C@@H](CCCNC(=N)N)C(=O)CF)N(C)C(=O)OCc1ccccc1 [Compound 112] (Cbz-[NMeV]-Pro-Arg-CH2F) | class C
* CC(C)[C@H](NC(=O)Cc1ccccc1)C(=O)N1CCC[C@H]1C(=O)N[C@@H](CCCNC(=N)N)C(=O)CF [Compound 117] (PhAc-Val-Pro-Arg-CH2F) | class C
* N=C(N)NCCC[C@H](NC(=O)[C@@H]1CCCN1C(=O)C1(NC(=O)OCc2ccccc2)CCCC1)C(=O)CF [Compound 181] (Cbz-[Ac5c]-Pro-Arg-CH2F) | class C
* CN[C@H](C(=O)N1CCC[C@H]1C(=O)N[C@@H](CCCNC(=N)N)C(=O)CF)C(C)C [Compound 205] (H-[NMeV]-Pro-Arg-CH2F) | class C
* CC(C)[C@H](NC(=O)OCc1ccccc1Cl)C(=O)N1CCC[C@H]1C(=O)N[C@@H](CCCNC(=N)N)C(=O)CF [Compound 170] (ClZ-Val-Pro-Arg-CH2F) | class A
* CC(C)[C@H](NC(=O)OCc1ccc(Cl)cc1)C(=O)N1CCC[C@H]1C(=O)N[C@@H](CCCNC(=N)N)C(=O)CF [Compound 168] | class B
* N=C(N)NCCC[C@H](NC(=O)[C@@H]1CCCCN1C(=O)[C@@H](NC(=O)OCc1ccccc1)C1CCCCC1)C(=O)CF [Compound 108] (Cbz-[Chg]-[Pip]-Arg-CH2F) | class B
* CC(C)[C@H](NC(=O)c1ccc(Br)cc1)C(=O)N1COC[C@H]1C(=O)N[C@@H](CCCNC(=N)N)C(=O)CF [Compound 174] | class A
* CC(C)[C@H](NC(=O)c1ccc(Br)cc1)C(=O)N1CCC[C@H]1C(=O)N[C@@H](CCCNC(=N)N)C(=O)CF [Compound 116] | class A

For the next question, use this compound.
stdin: Lab note: sort CC(C)[C@H](NC(=O)c1ccc(Br)cc1)C(=O)N1CCCC[C@H]1C(=O)N[C@@H](CCCNC(=N)N)C(=O)CF [Compound 144] into the matching Ki band.
stdout: class C

* * *

Target: MALT1 (Homo sapiens (Human), UniProt Q9UDY8)
Where a SMILES comes first, the peptide text is derived from it. [ ]: non-standard residue; d: D form. The star is where a group is joined. cisHyp = O=C(O)[C@@H]1C[C@H](O)CN1; Chg = N[C@H](C(=O)O)C1CCCCC1; Cbz = O=C(OCc1ccccc1)*; CH2F = FC*
assay_readout: Ki (nM)
# unit: nM | format: bare number

* CC(C)[C@H](NC(=O)OCc1ccccc1)C(=O)N1C[C@@H](O)C[C@H]1C(=O)N[C@@H](CCCNC(=N)N)C(=O)CF [Compound 110] (Cbz-Val-[cisHyp]-Arg-CH2F) | 49

# input for lookup
stdin: Requested read-out: Ki. Entry: N=C(N)NCCC[C@H](NC(=O)[C@@H]1CCCN1C(=O)[C@@H](NC(=O)OCc1ccccc1)C1CCCCC1)C(=O)CF [Compound 102] (Cbz-[Chg]-Pro-Arg-CH2F)
stdout: 44

* * *

Tested on: OCI-LY3
Assay: Maximum killing effect on OCI-LY3
Format: cell-based, human
Details: OCI-LY3, 5 μM
Description: The maximum killing effects on cell-lines OCI-LY3, TMD8, and OCI-LY1 were also measured for select compounds at inhibitor concentration of 20 μM and 5 μM. TMD8 is another line of ABC type diffuse large-B cell lymphoma, while OCI-LY1 is a DLBCL line of the germinal center B-cell subtype.
Where a SMILES comes first, the peptide text is derived from it. [ ]: non-standard residue; d: D form. The star is where a group is joined. NMeV = CN[C@H](C(=O)O)C(C)C; Pip = O=C(O)[C@@H]1CCCCN1; Cbz = O=C(OCc1ccccc1)*; CH2F = FC*
Each item that follows carries a reported Maximum killing effect.
Answer in %, number only, no unit symbol.

- CC(C)[C@H](NC(=O)OCc1ccccc1)C(=O)N1CCC[C@H]1C(=O)N[C@@H](CCCNC(=N)N)C(=O)CF [Compound 101, 2,2,2-trifluoroacetate] (Cbz-Val-Pro-Arg-CH2F): 70
- CC(C)[C@H](NC(=O)OCc1ccccc1)C(=O)N[C@@H](CCCNC(=N)N)C(=O)N1CCC[C@H]1C(=O)N[C@@H](CCCNC(=N)N)C(=O)CF [Z-VRPR-fmk, reference compound]: 42
- CC(C)[C@@H](C(=O)N1CCC[C@H]1C(=O)N[C@@H](CCCNC(=N)N)C(=O)CF)N(C)C(=O)OCc1ccccc1 [Compound 112] (Cbz-[NMeV]-Pro-Arg-CH2F): 28
- CN1CCCC(CN2c3ccccc3Sc3ccccc32)C1 (centres unmarked) [mepazine, reference compound]: 35

stdin: Given the entry CC(C)[C@H](NC(=O)OCc1ccccc1)C(=O)N1CCCC[C@H]1C(=O)N[C@@H](CCCNC(=N)N)C(=O)CF [Compound 107] (Cbz-Val-[Pip]-Arg-CH2F) , report its measured Maximum killing effect.
stdout: 38
